assayed_target: T1, RBFOX1 RRM RbFoxmut (Fox-RRM*) (Homo sapiens, UniProt Q9NWB1 109-208, R118D;E147R;N151S;E152T)
T1 sequence: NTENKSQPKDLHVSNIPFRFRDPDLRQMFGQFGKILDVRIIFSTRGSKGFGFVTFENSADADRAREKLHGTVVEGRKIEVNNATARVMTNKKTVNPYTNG
experiment_notes: EMSA; HiTS-Eq, 1 nM pool, 10 min; buffer printed only for the single-RNA assays: 10 mM Tris pH 7.5, 150 mM NaCl, 3.4 mM EDTA, 0.001% NP-40, 30 C
experimental_conditions: tags: His6 N-terminal (pET28a); label: 5' 32P
In all, about 16,000 sequences were measured (“ka relative to ugcaugu”: median about 0.096, highest 2% from about 0.35 on). Only a selection was taken, and the highest values are over-represented in it overall.
Item-by-item account of binding signal

| binder | binding signal |
| --- | --- |
| CACCGGC (DNA:RNA) RNA: GGGAGACCGGAAUUCAGAUUGUCCCACCGGCUUAAAUCCCGUCGUAGCCACCA DNA 1: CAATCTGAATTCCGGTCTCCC DNA 2: TGGTGGCTACGACGGGATT | 0.0862 KA relative to UGCAUGU |
| AGAAGCG (DNA:RNA) RNA: GGGAGACCGGAAUUCAGAUUGUCCAGAAGCGUUAAAUCCCGUCGUAGCCACCA DNA 1: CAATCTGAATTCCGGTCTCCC DNA 2: TGGTGGCTACGACGGGATT | 0.107 KA relative to UGCAUGU |
| CGUCAGG (DNA:RNA) RNA: GGGAGACCGGAAUUCAGAUUGUCCCGUCAGGUUAAAUCCCGUCGUAGCCACCA DNA 1: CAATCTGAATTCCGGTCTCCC DNA 2: TGGTGGCTACGACGGGATT | 0.113 KA relative to UGCAUGU |
| GGCUUGU (DNA:RNA) RNA: GGGAGACCGGAAUUCAGAUUGUCCGGCUUGUUUAAAUCCCGUCGUAGCCACCA DNA 1: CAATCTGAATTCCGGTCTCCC DNA 2: TGGTGGCTACGACGGGATT | 0.359 KA relative to UGCAUGU |
